Values compiled from patent US10202371B2.

This document collects IC50 values reported for human mTOR (GST-mTOR) (Homo sapiens (Human), UniProt P42345).
Write the number in µM without appending the unit.

## Input Annotate the compound COCCOc1ccc([C@@H]2OC(=O)N(c3cc(-c4cnc(N)nc4C(F)(F)F)nc(N4CCOCC4)n3)[C@H]2CO)cc1 with its measured IC50.
## Output 0.75

## Input Annotate the compound C[C@H]1[C@H](c2ccccc2)OC(=O)N1c1cc(-c2cnc(N)nc2C(F)(F)F)nc(N2CCOCC2)n1 with its measured IC50.
## Output 2.25

## Input Annotate the compound CCC1C(c2cccnc2)OC(=O)N1c1cc(-c2cnc(N)nc2C(F)(F)F)nc(N2CCOCC2)n1 (centres unmarked) with its measured IC50.
## Output 0.96

## Input Annotate the compound Nc1ncc(-c2cc(N3C(=O)O[C@@H](c4ccc(OCCCO)cc4)[C@@H]3CO)nc(N3CCOCC3)n2)c(C(F)(F)F)n1 with its measured IC50.
## Output 0.49

## Input Annotate the compound Nc1ncc(-c2cc(N3C(=O)O[C@@H](c4ccccc4)[C@@H]3CO)nc(N3CCOCC3)n2)c(C(F)(F)F)n1 with its measured IC50.
## Output 1.01

## Input Annotate the compound CC[C@H]1[C@H](c2ccc(OC)cc2)OC(=O)N1c1cc(-c2cnc(N)nc2C(F)(F)F)nc(N2CCOCC2)n1 (relative stereo) with its measured IC50.
## Output 2.8

## Input Annotate the compound C[C@H]1[C@@H](c2nccs2)OC(=O)N1c1cc(-c2cnc(N)nc2C(F)(F)F)nc(N2CCOCC2)n1 with its measured IC50.
## Output 0.87

## Input Annotate the compound C[C@H]1[C@H](c2nccs2)OC(=O)N1c1cc(-c2cnc(N)nc2C(F)(F)F)nc(N2CCOCC2)n1 with its measured IC50.
## Output 0.251

## Input Annotate the compound Nc1ncc(-c2cc(N3C(=O)O[C@@H](c4ccc(OCCO)cc4)[C@@H]3CO)nc(N3CCOCC3)n2)c(C(F)(F)F)n1 with its measured IC50.
## Output 0.23

## Input Annotate the compound COc1ccc([C@@H]2OC(=O)N(c3cc(-c4cnc(N)nc4C(F)(F)F)nc(N4CCOCC4)n3)[C@H]2CO)cc1 with its measured IC50.
## Output 0.85

## Input Annotate the compound CC[C@H]1[C@H](c2nccs2)OC(=O)N1c1cc(-c2cnc(N)nc2C(F)(F)F)nc(N2CCOCC2)n1 with its measured IC50.
## Output 2.7

###

Measured on: mTOR (TSC1-/- MEFs cells) (Mus musculus (Mouse))
Protocol description: Cellular assay mTOR, phospho-T389 S6K1 SureFire in TSC1-/- MEF cells
Measurement conditions: read-out: mTOR TS6K(T389)_TSC1ko/ IC50
For each record, write down the corresponding IC50.
Write the number in nM without appending the unit.

## Input Annotate the compound C[C@H]1[C@H](c2nccs2)OC(=O)N1c1cc(-c2cnc(N)nc2C(F)(F)F)nc(N2CCOCC2)n1 [Example 1] with its measured IC50.
## Output 243

## Input Annotate the compound COCCOc1ccc([C@@H]2OC(=O)N(c3cc(-c4cnc(N)nc4C(F)(F)F)nc(N4CCOCC4)n3)[C@H]2CO)cc1 [Example 12] with its measured IC50.
## Output 274

## Input Annotate the compound Nc1ncc(-c2cc(N3C(=O)O[C@@H](c4ccc(OCCO)cc4)[C@@H]3CO)nc(N3CCOCC3)n2)c(C(F)(F)F)n1 [Example 13] with its measured IC50.
## Output 1070

## Input Annotate the compound COc1ccc([C@@H]2OC(=O)N(c3cc(-c4cnc(N)nc4C(F)(F)F)nc(N4CCOCC4)n3)[C@H]2CO)cc1 [Example 3] with its measured IC50.
## Output 159

## Input Annotate the compound C[C@H]1[C@@H](c2nccs2)OC(=O)N1c1cc(-c2cnc(N)nc2C(F)(F)F)nc(N2CCOCC2)n1 [Example 11] with its measured IC50.
## Output 747

## Input Annotate the compound Nc1ncc(-c2cc(N3C(=O)O[C@@H](c4ccc(OCCCO)cc4)[C@@H]3CO)nc(N3CCOCC3)n2)c(C(F)(F)F)n1 [Example 14] with its measured IC50.
## Output 724

## Input Annotate the compound C[C@H]1[C@H](c2ccccc2)OC(=O)N1c1cc(-c2cnc(N)nc2C(F)(F)F)nc(N2CCOCC2)n1 [Example 5] with its measured IC50.
## Output 371

## Input Annotate the compound Nc1ncc(-c2cc(N3C(=O)O[C@@H](c4ccccc4)[C@@H]3CO)nc(N3CCOCC3)n2)c(C(F)(F)F)n1 [Example 10] with its measured IC50.
## Output 221

###

For each record, write down the corresponding pIC50.
Measured on: PI3Kgamma (Homo sapiens (Human))
Sequence (P48736 whole entry, species assumed): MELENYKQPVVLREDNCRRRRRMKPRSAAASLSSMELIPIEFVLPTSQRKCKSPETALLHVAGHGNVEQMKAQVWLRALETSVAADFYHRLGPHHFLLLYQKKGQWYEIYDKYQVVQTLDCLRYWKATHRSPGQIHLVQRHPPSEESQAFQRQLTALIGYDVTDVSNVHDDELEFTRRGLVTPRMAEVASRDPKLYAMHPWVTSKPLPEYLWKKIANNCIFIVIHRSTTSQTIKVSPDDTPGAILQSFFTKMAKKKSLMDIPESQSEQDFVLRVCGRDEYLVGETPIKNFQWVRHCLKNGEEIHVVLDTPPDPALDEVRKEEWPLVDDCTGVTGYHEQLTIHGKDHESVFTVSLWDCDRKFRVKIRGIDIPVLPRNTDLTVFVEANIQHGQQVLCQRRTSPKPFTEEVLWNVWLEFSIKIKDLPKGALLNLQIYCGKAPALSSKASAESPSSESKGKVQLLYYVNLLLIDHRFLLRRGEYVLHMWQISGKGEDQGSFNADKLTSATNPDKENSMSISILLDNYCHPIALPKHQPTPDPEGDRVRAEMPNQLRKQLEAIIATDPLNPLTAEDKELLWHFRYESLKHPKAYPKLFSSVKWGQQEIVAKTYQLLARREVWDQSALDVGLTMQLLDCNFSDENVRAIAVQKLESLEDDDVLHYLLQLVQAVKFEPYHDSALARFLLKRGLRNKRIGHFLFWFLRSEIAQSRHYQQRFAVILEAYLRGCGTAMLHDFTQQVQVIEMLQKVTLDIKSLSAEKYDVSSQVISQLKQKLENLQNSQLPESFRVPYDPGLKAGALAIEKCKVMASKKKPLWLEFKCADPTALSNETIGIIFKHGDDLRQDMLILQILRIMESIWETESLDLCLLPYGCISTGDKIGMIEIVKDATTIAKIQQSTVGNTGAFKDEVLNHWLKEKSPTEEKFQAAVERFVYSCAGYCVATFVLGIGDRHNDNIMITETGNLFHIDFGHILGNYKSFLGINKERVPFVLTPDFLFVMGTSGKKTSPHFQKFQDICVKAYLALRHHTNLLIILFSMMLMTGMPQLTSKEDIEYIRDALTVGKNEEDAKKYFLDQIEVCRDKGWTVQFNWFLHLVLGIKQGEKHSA
Remember, pIC50 is on a log scale: it is -log10 of the molar concentration.

## Input Annotate the compound COCCOc1ccc([C@@H]2OC(=O)N(c3cc(-c4cnc(N)nc4C(F)(F)F)nc(N4CCOCC4)n3)[C@H]2CO)cc1 with its measured pIC50.
## Output 6.87

## Input Annotate the compound COc1ccc([C@@H]2OC(=O)N(c3cc(-c4cnc(N)nc4C(F)(F)F)nc(N4CCOCC4)n3)[C@H]2CO)cc1 with its measured pIC50.
## Output 6.96

## Input Annotate the compound CC1C(c2cccnc2)OC(=O)N1c1cc(-c2cnc(N)nc2C(F)(F)F)nc(N2CCOCC2)n1 (stereo not drawn) with its measured pIC50.
## Output 6.64

###

This document collects IC50 values reported for human PI3Kβ (Homo sapiens (Human)).
Write the number in nM without appending the unit.

## Input Annotate the compound CC[C@H]1[C@H](c2ccc(OC)cc2)OC(=O)N1c1cc(-c2cnc(N)nc2C(F)(F)F)nc(N2CCOCC2)n1 (relative stereo) with its measured IC50.
## Output 96

## Input Annotate the compound COc1ccc([C@@H]2OC(=O)N(c3cc(-c4cnc(N)nc4C(F)(F)F)nc(N4CCOCC4)n3)[C@H]2CO)cc1 with its measured IC50.
## Output 7

## Input Annotate the compound Nc1ncc(-c2cc(N3C(=O)O[C@@H](c4ccccc4)[C@@H]3CO)nc(N3CCOCC3)n2)c(C(F)(F)F)n1 with its measured IC50.
## Output 5

## Input Annotate the compound C[C@H]1[C@@H](c2nccs2)OC(=O)N1c1cc(-c2cnc(N)nc2C(F)(F)F)nc(N2CCOCC2)n1 with its measured IC50.
## Output 10

###

Test system: SCC12B2 cells
Protocol description: BrdU cell proliferation assay SCC12B2
Format: cell-based
Measurement conditions: Homo sapiens; BrdU incorporation, measurement #1; read-out: anti-proliferative IC50 SCC12B2 measurement #1
Source text: The SCL-1 and SCC12B2 are human cutaneous squamous cell carcinoma (SCC) cell lines derived from naturally occurring, poorly differentiated SCCs. […] Cells of SCC or keratinocyte lines (Detroit562, SCC12B2, SCL1, HaCaT) were used for the proliferation assays when they had reached about 80% to 90% confluency. […] Incorporation of BrdU into the DNA was detected by BrdU-specific antibodies and quantified on the basis of an antibody-coupled luciferase mediated signal generation. […]
Value kind: pIC50
Remember, pIC50 is on a log scale: it is -log10 of the molar concentration.

## Input Enter recorded pIC50 with SCC12B2 cells for C[C@H]1[C@H](c2nccs2)OC(=O)N1c1cc(-c2cnc(N)nc2C(F)(F)F)nc(N2CCOCC2)n1 here.
## Output 5.89

###

Measured on: human PI3Kbeta p110 catalytic subunit (Rat-1 cells) (Homo sapiens (Human))
Sequence (P42338 whole entry): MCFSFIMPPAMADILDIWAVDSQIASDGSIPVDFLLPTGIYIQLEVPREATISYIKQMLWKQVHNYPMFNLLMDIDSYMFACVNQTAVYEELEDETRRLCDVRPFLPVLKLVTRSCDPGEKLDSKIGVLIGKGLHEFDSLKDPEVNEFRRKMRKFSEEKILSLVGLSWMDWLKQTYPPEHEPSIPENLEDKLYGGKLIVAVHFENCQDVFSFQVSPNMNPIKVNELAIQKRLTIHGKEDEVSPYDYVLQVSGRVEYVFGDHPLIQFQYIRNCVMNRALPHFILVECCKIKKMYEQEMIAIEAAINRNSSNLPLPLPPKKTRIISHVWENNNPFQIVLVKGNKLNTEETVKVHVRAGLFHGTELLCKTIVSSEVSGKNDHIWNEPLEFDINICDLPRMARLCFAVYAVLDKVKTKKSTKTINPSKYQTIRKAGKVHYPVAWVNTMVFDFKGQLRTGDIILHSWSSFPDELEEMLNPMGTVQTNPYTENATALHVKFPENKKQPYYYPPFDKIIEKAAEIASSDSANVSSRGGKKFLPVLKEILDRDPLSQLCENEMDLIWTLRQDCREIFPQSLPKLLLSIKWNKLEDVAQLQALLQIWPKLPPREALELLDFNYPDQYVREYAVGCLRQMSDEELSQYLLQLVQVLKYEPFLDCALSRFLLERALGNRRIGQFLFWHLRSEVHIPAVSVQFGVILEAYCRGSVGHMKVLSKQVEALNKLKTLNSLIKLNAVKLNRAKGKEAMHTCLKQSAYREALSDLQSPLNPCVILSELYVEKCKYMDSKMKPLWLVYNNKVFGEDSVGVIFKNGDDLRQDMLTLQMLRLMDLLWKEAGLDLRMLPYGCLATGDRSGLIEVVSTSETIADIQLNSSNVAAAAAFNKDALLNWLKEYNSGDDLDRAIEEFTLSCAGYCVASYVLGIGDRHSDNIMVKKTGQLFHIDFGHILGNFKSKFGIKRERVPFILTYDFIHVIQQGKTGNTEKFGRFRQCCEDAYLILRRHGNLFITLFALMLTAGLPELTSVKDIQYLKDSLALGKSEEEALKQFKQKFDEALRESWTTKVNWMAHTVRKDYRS
Sequence (Q63787 whole entry partner): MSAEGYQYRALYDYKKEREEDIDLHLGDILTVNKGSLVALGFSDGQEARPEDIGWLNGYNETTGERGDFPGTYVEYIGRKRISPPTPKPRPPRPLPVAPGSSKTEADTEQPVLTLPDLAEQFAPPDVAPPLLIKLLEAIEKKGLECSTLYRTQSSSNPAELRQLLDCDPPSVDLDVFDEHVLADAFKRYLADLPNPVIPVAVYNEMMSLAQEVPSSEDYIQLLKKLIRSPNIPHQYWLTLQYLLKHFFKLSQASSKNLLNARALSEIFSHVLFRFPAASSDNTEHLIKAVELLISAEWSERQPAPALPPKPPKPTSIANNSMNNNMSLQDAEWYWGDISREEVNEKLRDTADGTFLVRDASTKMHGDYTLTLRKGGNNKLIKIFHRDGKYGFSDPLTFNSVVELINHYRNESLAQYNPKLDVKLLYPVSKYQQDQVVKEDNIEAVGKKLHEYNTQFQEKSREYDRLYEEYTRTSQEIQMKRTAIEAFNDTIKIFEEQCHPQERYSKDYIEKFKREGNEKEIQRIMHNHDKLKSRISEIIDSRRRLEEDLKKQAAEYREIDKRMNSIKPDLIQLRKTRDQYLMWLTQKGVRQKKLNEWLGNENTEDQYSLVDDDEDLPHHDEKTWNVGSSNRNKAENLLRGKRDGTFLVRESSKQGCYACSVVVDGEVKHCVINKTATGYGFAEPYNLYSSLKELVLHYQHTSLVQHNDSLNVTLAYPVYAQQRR
Protocol description: Cellular assay PI3Kbeta, p-Akt(S473) SureFire in Rat-1_PI3Kbeta cells
Measurement conditions: p-AKT(Ser473), 1 h treatment; read-out: Rat1-PI3Kb/IC50
Value kind: pIC50
Remember, pIC50 is on a log scale: it is -log10 of the molar concentration.

## Input Annotate the compound COc1ccc([C@@H]2OC(=O)N(c3cc(-c4cnc(N)nc4C(F)(F)F)nc(N4CCOCC4)n3)[C@H]2CO)cc1 [Example 3] with its measured pIC50.
## Output 7.48

## Input Annotate the compound C[C@H]1[C@@H](c2nccs2)OC(=O)N1c1cc(-c2cnc(N)nc2C(F)(F)F)nc(N2CCOCC2)n1 [Example 11] with its measured pIC50.
## Output 7.59

## Input Annotate the compound Nc1ncc(-c2cc(N3C(=O)O[C@@H](c4ccccc4)[C@@H]3CO)nc(N3CCOCC3)n2)c(C(F)(F)F)n1 [Example 10] with its measured pIC50.
## Output 7.64

## Input Annotate the compound CC[C@H]1[C@H](c2ccc(OC)cc2)OC(=O)N1c1cc(-c2cnc(N)nc2C(F)(F)F)nc(N2CCOCC2)n1 (relative stereo) [Example 2] with its measured pIC50.
## Output 6.12

## Input Annotate the compound CCC1C(c2cccnc2)OC(=O)N1c1cc(-c2cnc(N)nc2C(F)(F)F)nc(N2CCOCC2)n1 (centres unmarked) [Example 8] with its measured pIC50.
## Output 7.59
